Target: T1, human TNFSF9 (R&D Systems; #2295-4L-025/CF) (human, UniProt P41273 71-254, limits assumed)
T1 construct: also called TNFSF9 (ligand); TNFSF9 ligand
T1 sequence (P41273 71-254 limits assumed): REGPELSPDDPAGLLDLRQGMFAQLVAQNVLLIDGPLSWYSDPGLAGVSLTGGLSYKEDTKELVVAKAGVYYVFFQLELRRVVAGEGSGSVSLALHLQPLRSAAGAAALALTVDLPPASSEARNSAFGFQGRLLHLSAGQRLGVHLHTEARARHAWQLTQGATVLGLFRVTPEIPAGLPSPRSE
Test: MSD ELISA: TNFSF9 + 1 ug/mL antibody, binding to coated TNFRSF9
As shown below, each of these binders has a reported % inhibition of ligand receptor interaction value.
Parameter Measured: % inhibition of ligand receptor interaction (%)

Binder: SC113.167 (antibody, V domains shown) VH: EVQLQQSGAELVKPGASVKLSCTASGFNIKDYYMHWVKQRPEQGLYWIGRIDPEAGETRYAPNFQGKATITADTSSNTAYLQLRSLTSEDTAIYYCARLDFYFDSWGQGTTLTVSS VL: QIVLSQSPAILSASPGEKVTMTCRASSSVSYMHWYQQKPGSSPKPWIYATSNLASGVPGRFSGSGSGTSYSLTISRVEAEDTATYYCQQWFTNPPTFGSGTKLEIK
Readout Number: 89
//
Binder: SC113.61 (antibody, V domains shown, MSD SULFO-TAG NHS Ester label on amines (sites not given), Murine hybridoma antibody, sulfo-tagged for use as detection antibody; The label may sit on either chain; also called SC113.61 detection antibody) VH: EVQLVESGGDLVKPGGSLKLSCAASGFTFSNYGMSWVRQTPDKRLEWVATISNGGISTYYPDSVKGRFTISRDNAKNTLYLQMNSLKSEDTAMYYCVRPGRGYFDYWGQGTTLTVSS VL: DIVMTQAAPSVPVTPGESVSISCRSNKSLLHSDGNTYLYWFLQRPGQSPQLLIYRMSNLASGVPDRFSGSGSGTAFTLRISRVEAEDVGVYYCMQHLEYPWTFGGGTKLEIK
Readout Number: 48
